Counter-ions that a name gives are not always drawn.
Measurement Type: melting point

Example entries begin here.
Cc1nccn1Cc1cn(-c2ccc(F)c(Cl)c2)cn1.Cl.Cl [Example 93]: 224 to 225 °C
CCNc1nccn1Cc1cn(-c2ccc(Cl)c(Cl)c2)cn1.Cl.Cl [Example 111]: > 250 °C

Quick batch: melting point for everything below.
1. Cc1nccn1Cc1cn(-c2ccc3ccccc3c2)cn1 (as salt: hydrochloride) [Example 155]
2. CSc1ccc(-n2cnc(Cn3ccnc3C)c2)cc1 (as salt: hydrochloride) [Example 27]
3. CCc1nccn1Cc1cn(-c2ccc(C)c(Cl)c2)cn1.Cl.Cl
4. COc1cccc(-n2cnc(Cn3ccnc3C)c2)c1.Cl.Cl

["247 to 248 °C", "242 to 243 °C", "178 to 179 °C", "242 to 243 °C"]
